Value source: patent US7160888B2

# target system: D2 receptor (Homo sapiens, UniProt P14416)
# Sequence (P14416 whole entry): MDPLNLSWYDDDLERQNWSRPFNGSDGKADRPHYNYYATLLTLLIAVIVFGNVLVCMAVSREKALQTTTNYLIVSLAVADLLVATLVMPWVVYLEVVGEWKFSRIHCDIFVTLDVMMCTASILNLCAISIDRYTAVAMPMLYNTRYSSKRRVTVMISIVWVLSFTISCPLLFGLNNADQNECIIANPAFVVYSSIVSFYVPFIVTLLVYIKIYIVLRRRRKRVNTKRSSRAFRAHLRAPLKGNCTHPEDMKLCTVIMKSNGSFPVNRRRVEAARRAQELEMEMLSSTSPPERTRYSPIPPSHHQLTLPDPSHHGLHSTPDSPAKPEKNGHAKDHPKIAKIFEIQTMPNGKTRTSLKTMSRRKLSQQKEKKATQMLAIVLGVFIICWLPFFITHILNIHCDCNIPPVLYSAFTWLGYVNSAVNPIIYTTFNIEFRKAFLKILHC
# procedure details: [3H]Thymidine uptake assay for D2 intrinsic activity
# Format: cell-based
# measurement setup: Table 1; test compound 1 μM; 1 μM Quinpirole = 100% intrinsic activity
measurement type: Emax at 1 µM

>>> print(df.to_string())
                               query_smiles                             target_system  measured_result
0  O=C1CCc2ccc(OCCCCN3CCC(c4cccc5ccccc45)CC3)nc2N1  D2 receptor (Homo sapiens, UniProt P14416)              36%
1  Cc1cc2ccc(CCCCCN3CCN(c4cccc(Cl)c4Cl)CC3)nc2[nH]c1=O  D2 receptor (Homo sapiens, UniProt P14416)              15%
2  O=c1ccc2ccc(OCCCN3CCN(c4cccc5ccccc45)CC3)nc2[nH]1  D2 receptor (Homo sapiens, UniProt P14416)              24%
3  CCc1c(F)cccc1N1CCN(CCCCOc2ccc3c(n2)NC(=O)CC3)CC1  D2 receptor (Homo sapiens, UniProt P14416)              26%
4  O=c1ccc2cnc(OCCCCN3CCN(c4cccc5c4CCC5)CC3)nc2[nH]1  D2 receptor (Homo sapiens, UniProt P14416)              25%
5  CC(=O)c1ccccc1N1CCN(CCCCOc2ccc3c(n2)NC(=O)CC3)CC1  D2 receptor (Homo sapiens, UniProt P14416)               8%

====

# target system: D2 receptor (Homo sapiens)
# procedure details: [3H]Thymidine uptake assay for D2 intrinsic activity
# Format: cell-based
# measurement setup: Table 1; test compound 1 μM; 1 μM Quinpirole = 100% intrinsic activity
Lab note: anything with Emax at 1 µM below 20% is marked 1 (yes); values at 20% or higher are marked 0 (no).

>>> print(df.to_string())
                                query_smiles  label_class
 0  CC(=O)Nc1ccc2cccc(N3CCN(CCCCOc4ccc5c(n4)NC(=O)CC5)CC3)c2c1      1 (yes)
 1  Cc1cc(OCCCCN2CCN(c3cccc4c3CCC4)CC2)nc2c1CCC(=O)N2       0 (no)
 2  CC(=O)c1cccc(N2CCN(CCCCOc3ccc4c(n3)NC(=O)CC4)CC2)c1Cl      1 (yes)
 3  Cc1c(Cl)cccc1N1CCN(CCCCOc2ccc3c(n2)NC(=O)CC3(C)C)CC1       0 (no)
 4  O=C1CCc2c(C(F)(F)F)cc(OCCCCN3CCN(c4cccc5ccccc45)CC3)nc2N1       0 (no)
 5  CCc1cccc(N2CCN(CCCCOc3ccc4c(n3)NC(=O)CC4)CC2)n1       0 (no)
 6  CC(=O)c1cccc2c(N3CCN(CCCCOc4ccc5ccc(=O)[nH]c5n4)CC3)cccc12       0 (no)
 7  O=c1ccc2ccc(OCCCCN3CCN(c4cccc5c4CCC5)CC3)nc2[nH]1      1 (yes)
 8  O=c1ccc2ccc(OCCCCN3CCN(c4cccc(C(F)(F)F)c4Cl)CC3)nc2[nH]1       0 (no)
 9  O=C1CCc2ccc(OCCCCN3CCN(c4ccccc4C(F)(F)F)CC3)nc2N1       0 (no)
10  Cc1nc(OCCCCN2CCN(c3cccc(C(C)C)n3)CC2)nc2[nH]c(=O)ccc12       0 (no)
